IC50, Cyclin-dependent kinase 1/cyclin B (Homo sapiens, UniProt P06493), per-entry values.

Please review the following examples before continuing.
CC(C)c1c(-c2ccc(Cl)cc2)[nH]c2nccnc12	850 nM
NC1N=Nc2nc3ccccc3nc21 (stereo not drawn)	600 nM
CN(C)CCCn1cc(C2=C(c3c[nH]c4ccccc34)C(=O)NC2=O)c2ccccc21	2300 nM
Ic1cccc(CSc2nnc(-c3ccncc3)o2)c1	> 10000 nM
Cn1cc(C2=C(c3ccc(Cl)cc3Cl)C(=O)NC2=O)c2ccccc21	550 nM

Input: Dear colleague, I am looking for the recorded IC50 of the following molecule: "Nc1nc(NCCNc2ncc(-c3ncc[nH]3)c(-c3ccc(Cl)cc3Cl)n2)ccc1[N+](=O)[O-]"
Output: 3700 nM

Input: Ok, now "Cn1sc(=O)n(Cc2ccccc2)c1=O"
Output: > 10000 nM

Input: Ok, now "O=C1NC(=O)C(c2ccccc2[N+](=O)[O-])=C1Nc1ccc(O)c(Cl)c1"
Output: 900 nM

---

# System Name: Cyclin-dependent kinase 2/cyclin A (Homo sapiens, UniProt P24941)
# Protocol Notes: Inhibition of CDK2/cyclinA at 10 mM
# Format: protein-complex assay
pIC50: −log10 of the molar value.
Readout Name: pIC50

O=C1NC(=O)C(c2cccc(Cl)c2)=C1Nc1ccc(Cl)c(C(=O)O)c1	< 5.00

Input: Dear colleague, I am looking for the recorded pIC50 of the following compound: "Nc1nonc1-n1nnc(-c2nnc(-c3ccncc3)[nH]2)c1CN1CCCCC1"
Output: < 3.60

---

# Protocol Notes: Inhibition of GSK3
// boundary case: IC50 equal to 300 nM maps to not met; strictly smaller maps to met

Consider the following illustrative entries.
CC(C)c1c(-c2ccc(Cl)cc2)[nH]c2nccnc12	not met
O=Nc1c(-c2c(O)[nH]c3ccccc23)[nH]c2ccccc12 [INDIRUBIN-3-MONOXIME]	met
CCCCc1c(-c2ccc(O)cc2)[nH]c2nccnc12 [ALOISINE A]	not met
CN1CC[C@H](c2c(O)cc(O)c3c(=O)cc(-c4ccccc4Cl)oc23)[C@H](O)C1 [ALVOCIDIB]	not met
NC1N=Nc2nc3ccccc3nc21 (stereo not drawn)	not met
CN[C@@H]1C[C@H]2O[C@@](C)([C@@H]1OC)n1c3ccccc3c3c4c(c5c6ccccc6n2c5c31)C(=O)NC4 [STAUROSPORINE]	met
OCCCNc1cc(-c2ccnc(Nc3cccc(Cl)c3)n2)ccn1	met

# next compound below
Input: Hello, is IC50 of the following compound strictly smaller than 300 nM? COc1ccc2c(c1)/C(=C/c1cnc[nH]1)C(=O)N2 [SU-9516]
Output: not met

---

IC50, Glycogen synthase kinase-3 beta (Homo sapiens, UniProt P49841), per-entry values.

Nc1cccc(-c2cc3c(Oc4cccc(O)c4)ncnc3[nH]2)c1	30 nM
Cn1cc(C2=C(c3cn(CCCSC(=N)N)c4ccccc34)C(=O)NC2=O)c2ccccc21 [BISINDOLYLMALEIMIDE IX]	3 nM
CN(C)CCCn1cc(C2=C(c3c[nH]c4ccccc34)C(=O)NC2=O)c2ccccc21 [GF-109203]	190 nM
COc1cccc(-n2ncc3c(N/N=C/c4ccncc4)ncnc32)c1 [GW784752X]	16 nM

Proceed to the following item.
Input: Dear colleague, I am looking for the recorded IC50 of the following compound: "O=C1NC(=O)C2=C1c1cn(c3ncccc13)CCCC1=CC=C(CCCn3cc2c2cccnc23)S1"
Output: 36 nM
